# credit: patent US9617282B2

Provide the recorded pIC50 for the entries that follow.
TESTED_TARGET: IRAK4 (Homo sapiens (Human))
ASSAY_REMARKS: IRAK-4 biochemical kinase assay, AlphaScreen format
COND: 1 nM IRAK4, 1.6 μM peptide, 10 μM ATP, 3.5 h at RT; class symbols
Description: The biochemical assay is in a AlphaScreen format. The kinase reaction is based on the IRAK-4 phosphorylation of a biotin labeled peptide. The phosphopeptide is incubated with anti-phosphothreonine antibody as well as streptavidin- and protein A-coated beads. Binding of the protein-A coated beads to the antibody and the streptavidin beads to the peptide, leads to an energy transfer from one bead to the other, ultimately producing a luminescent/fluorescent signal.
pIC50: −log10 of the molar value.

Answered examples (7):
{"columns": ["MOLECULE", "TESTED_TARGET", "pIC50"],
 "data": [
  ["O=C1Nc2cn(C3CCOCC3)nc2C(=O)NCCCCOc2cc(ccn2)-c2nc1cs2", "IRAK4 (Homo sapiens (Human))", "> 7.00"],
  ["O=C1NCC(c2ccccc2)OCCCCCNc2cc(ccn2)-c2nc1co2 (centres unmarked)", "IRAK4 (Homo sapiens (Human))", "> 7.00"],
  ["O=C1Nc2cn(C3CCOCC3)nc2C(=O)NCCOCCOc2cc(ccn2)-c2cc1ccn2", "IRAK4 (Homo sapiens (Human))", "> 6.00"],
  ["CC1NC(=O)c2nn(C3CCOCC3)cc2NC(=O)c2csc(n2)-c2ccnc(c2)CCCNC1=O (centres unmarked)", "IRAK4 (Homo sapiens (Human))", "> 6.00"],
  ["Cn1cc2c(n1)C(=O)NCCOCCc1cc(ccn1)-c1nc(cs1)C(=O)N2", "IRAK4 (Homo sapiens (Human))", "> 6.00"],
  ["CCOC(=O)CCN1CCCc2cc(ccn2)-c2nc(cs2)C(=O)Nc2cn(C3CCOCC3)nc2C(=O)NCC1", "IRAK4 (Homo sapiens (Human))", "> 7.00"],
  ["CCN1CCCCCCCCN(CC)c2cc(ccn2)-c2nc(cs2)C1=O", "IRAK4 (Homo sapiens (Human))", "> 5.00"]
]}

Query :: Entry under review: `Cn1cc2c(n1)C(=O)NCCCCOc1cnccc1-c1nc(co1)C(=O)N2` . Reported pIC50?
Result :: > 6.00

====

TESTED_TARGET: IRAK4 (Homo sapiens (Human))
ASSAY_REMARKS: IRAK-4 biochemical kinase assay, AlphaScreen format
COND: 1 nM IRAK4, 1.6 μM peptide, 10 μM ATP, 3.5 h at RT; class symbols
Provide the recorded IC50 for the entries that follow.

Dear colleague, could you please provide IC50 for the molecules listed below?
1. O=C1Nc2cn(CCN3CCNCC3)nc2C(=O)NCCOCCNc2cc(ccn2)-c2nc1cs2 [Example 145]
2. CC(C)(C)OC(=O)N1CCC(n2cc3c(n2)C(=O)NCCOCCOc2cc(ccn2)-c2nc(cs2)C(=O)N3)CC1 [Example 164]
3. O=C1Nc2cn(C3CCOCC3)nc2C(=O)NCCCCNc2cc(ccn2)-c2nc1cs2 [Example 132]
4. O=C1Nc2ccccc2OC(CO)CCCCNc2cc(ccn2)-c2nc1co2 (stereo not drawn) [Compound 12]
5. O=C1c2coc(n2)-c2ccnc(c2)NCCCCCOCC2CCCN12 (stereo not drawn) [Compound 59]
6. O=C(O)CCC1NC(=O)c2nn(C3CCOCC3)cc2NC(=O)c2csc(n2)-c2ccnc(c2)CCCNC1=O (stereo not drawn) [Example 194]
7. CC(C)(C)OC(=O)N1CCC(CCn2ncc3c2C(=O)NCCOCCOc2cc(ccn2)-c2nc(cs2)C(=O)N3)CC1 [Example 157]

Result ::
["< 100 nM", "< 100 nM", "< 100 nM", "< 100 nM", "< 100 nM", "< 10000 nM", "< 10000 nM"]

====

TESTED_TARGET: IRAK4 (Homo sapiens (Human), UniProt Q9NWZ3)
Sequence (Q9NWZ3 whole entry, species assumed): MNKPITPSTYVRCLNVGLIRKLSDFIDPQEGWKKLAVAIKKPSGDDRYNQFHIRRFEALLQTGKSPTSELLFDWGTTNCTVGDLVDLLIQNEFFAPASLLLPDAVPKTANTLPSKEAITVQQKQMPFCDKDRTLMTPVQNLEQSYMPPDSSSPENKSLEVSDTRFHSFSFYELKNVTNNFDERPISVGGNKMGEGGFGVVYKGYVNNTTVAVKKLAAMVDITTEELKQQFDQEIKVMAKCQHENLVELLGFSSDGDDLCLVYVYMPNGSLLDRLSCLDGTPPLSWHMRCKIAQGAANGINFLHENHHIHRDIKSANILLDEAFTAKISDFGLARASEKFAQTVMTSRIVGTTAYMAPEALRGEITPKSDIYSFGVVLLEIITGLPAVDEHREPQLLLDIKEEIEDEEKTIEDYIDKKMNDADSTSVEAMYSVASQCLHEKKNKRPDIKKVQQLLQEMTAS
ASSAY_REMARKS: IRAK-4 biochemical kinase assay, AlphaScreen format
COND: 1 nM IRAK4, 1.6 μM peptide, 10 μM ATP, 3.5 h at RT; class symbols
Provide the recorded IC50 for the entries that follow.

Dear colleague, could you please provide IC50 for the molecules listed below?
1. Cn1cc2c(n1)C(=O)NCCCCNc1cc(ccn1)-c1nc(cs1)C(=O)N2 [Example 131]
2. O=C1Nc2ccccc2OCCCCCNc2cc(ccn2)-c2nc1co2 [Compound 2]
3. Cn1cc2c(n1)C(=O)NCCCCOc1cc(ccn1)-c1nc(c[nH]1)C(=O)N2 [Example 92]
4. O=C1Nc2cn(C3CCOCC3)nc2C(=O)NCCCOCCCc2cc(ccn2)-c2nc1cs2 [Example 216]
5. O=C1c2coc(n2)-c2ccnc(c2)OCCCCOCC2CCCN12 (centres unmarked) [Example 104]

Result ::
1. < 100 nM
2. < 100 nM
3. < 10000 nM
4. < 100 nM
5. < 10000 nM

====

TESTED_TARGET: IRAK4 (Homo sapiens (Human))
ASSAY_REMARKS: IRAK-4 biochemical kinase assay, AlphaScreen format
COND: 1 nM IRAK4, 1.6 μM peptide, 10 μM ATP, 3.5 h at RT; class symbols
Provide the recorded IC50 for the entries that follow.

Answered examples (5):
{"columns": ["COMPOUND", "TESTED_TARGET", "IC50"],
 "data": [
  ["CN(C)CCn1cc2c(n1)C(=O)NCCOCCNc1cc(ccn1)-c1nc(cs1)C(=O)N2 [Example 117]", "IRAK4 (Homo sapiens (Human))", "< 100 nM"],
  ["CCOC(=O)CCn1cc2c(n1)C(=O)NCCOCCOc1cc(ccn1)-c1nc(cs1)C(=O)N2 [Example 150]", "IRAK4 (Homo sapiens (Human))", "< 100 nM"],
  ["O=C1Nc2cn(C3CCOCC3)nc2C(=O)NCCOCCOc2cc(ccn2)-c2csc1n2 [Example 214]", "IRAK4 (Homo sapiens (Human))", "< 1000 nM"],
  ["Cn1cc2c(n1)C(=O)NCCCCCn1cc(cn1)-c1nc(co1)C(=O)N2 [Compound 41]", "IRAK4 (Homo sapiens (Human))", "< 1000 nM"],
  ["O=C1Nc2cn(C3CCOCC3)nc2C(=O)NCCN(C(=O)C2CC2)CCCc2cc(ccn2)-c2nc1cs2 [Example 184]", "IRAK4 (Homo sapiens (Human))", "< 100 nM"]
]}

Dear colleague, could you please provide IC50 for the compounds listed below?
1. Cn1cc2c(n1)C(=O)NCCOCCCn1cc(cn1)-c1nc(cs1)C(=O)N2 [Example 135]
2. O=C1Nc2cn(C3CCOCC3)nc2C(=O)NCCOCCCc2cc(ccn2)-c2nc1cs2 [Compound 47]
3. O=C1Nc2ccccc2OCCCCCCCn2cc(cn2)-c2nc1co2 [Compound 8]

Result ::
1. < 100 nM
2. < 100 nM
3. < 100 nM

====

Provide the recorded pIC50 for the entries that follow.
TESTED_TARGET: IRAK4 (Homo sapiens (Human))
ASSAY_REMARKS: IRAK-4 biochemical kinase assay, AlphaScreen format
COND: 1 nM IRAK4, 1.6 μM peptide, 10 μM ATP, 3.5 h at RT; class symbols
pIC50: −log10 of the molar value.

{"columns": ["MOLECULE", "pIC50"],
 "data": [
  ["NC(=O)CCN1CCCc2cc(ccn2)-c2nc(cs2)C(=O)Nc2cn(C3CCOCC3)nc2C(=O)NCC1", "> 7.00"],
  ["O=C(O)Cn1cc2c(n1)C(=O)NCCOCCOc1cc(ccn1)-c1nc(cs1)C(=O)N2", "> 5.00"],
  ["Cn1cc2c(n1)C(=O)NCCOCCNc1cc(ccn1)-c1nc(cs1)C(=O)N2", "> 7.00"]
]}

Dear colleague, could you please provide pIC50 for the molecules listed below?
1. O=C1Nc2cn(C3CCOCC3)nc2C(=O)NCCOCCCOc2cc(ccn2)-c2nc1cs2
2. O=C1Nc2cn(C3CCOCC3)nc2C(=O)NCCN(C(=O)CCO)CCCc2cc(ccn2)-c2nc1cs2
3. Cn1cc2c(n1)C(=O)NCCOCCCc1cc(ccn1)-c1nc(cs1)C(=O)N2

Result ::
> 7.00
> 7.00
> 7.00

Dear colleague, could you please provide pIC50 for the molecules listed below?
1. Cn1cc2c(n1)C(=O)NCCCOCCCc1cc(ccn1)-c1nc(cs1)C(=O)N2
2. CC(C)(C)OC(=O)N1CCNC(=O)c2nn(C3CCOCC3)cc2NC(=O)c2csc(n2)-c2ccnc(c2)OCC1
3. O=C1CNC(=O)c2nn(C3CCOCC3)cc2NC(=O)c2csc(n2)-c2ccnc(c2)CCCN1
4. O=C1Nc2ccccc2OCCCCOCc2cc(ccn2)-c2nc1co2
5. CC(C)(CO)C(=O)N1CCCc2cc(ccn2)-c2nc(cs2)C(=O)Nc2cn(C3CCOCC3)nc2C(=O)NCC1
6. O=C1NCCCCCCCCNc2cc(ccn2)-c2nc1co2
7. CCC(=O)N1CCCc2cc(ccn2)-c2nc(cs2)C(=O)Nc2cn(C3CCOCC3)nc2C(=O)NCC1

Result ::
1. > 7.00
2. > 6.00
3. > 7.00
4. > 7.00
5. > 7.00
6. > 7.00
7. > 7.00

Dear colleague, could you please provide pIC50 for the molecules listed below?
1. O=C1NCC2CCCC(C2)OCCCNc2cc(ccn2)-c2nc1cs2 (stereo not shown)
2. O=C1Nc2cn(CCN3CCOCC3)nc2C(=O)NCCOCCOc2cc(ccn2)-c2nc1cs2
3. Cn1cc2c(n1)C(=O)NCCCCCc1cc(ccn1)-c1nc(cn1COCC[Si](C)(C)C)C(=O)N2
4. NC(=O)CN1CCCc2cc(ccn2)-c2nc(cs2)C(=O)Nc2cn(C3CCOCC3)nc2C(=O)NCC1
5. CN1CCN(C(=O)c2ccc3c(c2)NC(=O)c2csc(n2)-c2ccnc(c2)NCCCCCO3)CC1
6. Cn1cc2c(n1)C(=O)NCCOCCOc1cc(ccn1)-c1cccc(c1)C(=O)N2

Result ::
1. > 5.00
2. > 7.00
3. > 5.00
4. > 6.00
5. > 7.00
6. > 6.00

Dear colleague, could you please provide pIC50 for the molecules listed below?
1. O=C1Nc2cc(CCCN3CCCCC3)ccc2OCCCCCNc2cc(ccn2)-c2nc1cs2
2. O=C1Nc2cc(Br)ccc2OCCCCCNc2cc(ccn2)-c2nc1cs2

Result ::
["> 7.00", "> 7.00"]

Query :: Entry under review: `CC(C)N1CCCc2cc(ccn2)-c2nc(cs2)C(=O)Nc2cn(C3CCOCC3)nc2C(=O)NCC1` . Reported pIC50?
Result :: > 7.00
